Quick reference: melting point of the listed items.

See these solved cases before continuing.
entry.smiles: CCCCCCCCOc1ccc(C(c2ccccc2)(c2ccccc2)c2ccc(OCCCCCCCC)cc2)cc1
melting point: 84.5 to 86.5 °C
//
entry.smiles: CCCCCCOc1ccc(C(c2ccccc2)(c2ccccc2)c2ccc(OCCCCCC)cc2)cc1
melting point: 120 to 122 °C
//
entry.smiles: CCCCCOc1ccc(C(c2ccccc2)(c2ccccc2)c2ccc(OCCCCC)cc2)cc1
melting point: 110 to 113 °C

Read the next record carefully.
Name the recorded melting point for CCCCCCCOc1ccc(C(c2ccccc2)(c2ccccc2)c2ccc(OCCCCCCC)cc2)cc1 . 103 to 105 °C

The values you see were collected from patent US10131606B2.
